The following compounds are listed with their measured residual activity values.
target.desc: LRRK2 (human) (UniProt Q5S007)
Sequence (Q5S007 whole entry, looked up): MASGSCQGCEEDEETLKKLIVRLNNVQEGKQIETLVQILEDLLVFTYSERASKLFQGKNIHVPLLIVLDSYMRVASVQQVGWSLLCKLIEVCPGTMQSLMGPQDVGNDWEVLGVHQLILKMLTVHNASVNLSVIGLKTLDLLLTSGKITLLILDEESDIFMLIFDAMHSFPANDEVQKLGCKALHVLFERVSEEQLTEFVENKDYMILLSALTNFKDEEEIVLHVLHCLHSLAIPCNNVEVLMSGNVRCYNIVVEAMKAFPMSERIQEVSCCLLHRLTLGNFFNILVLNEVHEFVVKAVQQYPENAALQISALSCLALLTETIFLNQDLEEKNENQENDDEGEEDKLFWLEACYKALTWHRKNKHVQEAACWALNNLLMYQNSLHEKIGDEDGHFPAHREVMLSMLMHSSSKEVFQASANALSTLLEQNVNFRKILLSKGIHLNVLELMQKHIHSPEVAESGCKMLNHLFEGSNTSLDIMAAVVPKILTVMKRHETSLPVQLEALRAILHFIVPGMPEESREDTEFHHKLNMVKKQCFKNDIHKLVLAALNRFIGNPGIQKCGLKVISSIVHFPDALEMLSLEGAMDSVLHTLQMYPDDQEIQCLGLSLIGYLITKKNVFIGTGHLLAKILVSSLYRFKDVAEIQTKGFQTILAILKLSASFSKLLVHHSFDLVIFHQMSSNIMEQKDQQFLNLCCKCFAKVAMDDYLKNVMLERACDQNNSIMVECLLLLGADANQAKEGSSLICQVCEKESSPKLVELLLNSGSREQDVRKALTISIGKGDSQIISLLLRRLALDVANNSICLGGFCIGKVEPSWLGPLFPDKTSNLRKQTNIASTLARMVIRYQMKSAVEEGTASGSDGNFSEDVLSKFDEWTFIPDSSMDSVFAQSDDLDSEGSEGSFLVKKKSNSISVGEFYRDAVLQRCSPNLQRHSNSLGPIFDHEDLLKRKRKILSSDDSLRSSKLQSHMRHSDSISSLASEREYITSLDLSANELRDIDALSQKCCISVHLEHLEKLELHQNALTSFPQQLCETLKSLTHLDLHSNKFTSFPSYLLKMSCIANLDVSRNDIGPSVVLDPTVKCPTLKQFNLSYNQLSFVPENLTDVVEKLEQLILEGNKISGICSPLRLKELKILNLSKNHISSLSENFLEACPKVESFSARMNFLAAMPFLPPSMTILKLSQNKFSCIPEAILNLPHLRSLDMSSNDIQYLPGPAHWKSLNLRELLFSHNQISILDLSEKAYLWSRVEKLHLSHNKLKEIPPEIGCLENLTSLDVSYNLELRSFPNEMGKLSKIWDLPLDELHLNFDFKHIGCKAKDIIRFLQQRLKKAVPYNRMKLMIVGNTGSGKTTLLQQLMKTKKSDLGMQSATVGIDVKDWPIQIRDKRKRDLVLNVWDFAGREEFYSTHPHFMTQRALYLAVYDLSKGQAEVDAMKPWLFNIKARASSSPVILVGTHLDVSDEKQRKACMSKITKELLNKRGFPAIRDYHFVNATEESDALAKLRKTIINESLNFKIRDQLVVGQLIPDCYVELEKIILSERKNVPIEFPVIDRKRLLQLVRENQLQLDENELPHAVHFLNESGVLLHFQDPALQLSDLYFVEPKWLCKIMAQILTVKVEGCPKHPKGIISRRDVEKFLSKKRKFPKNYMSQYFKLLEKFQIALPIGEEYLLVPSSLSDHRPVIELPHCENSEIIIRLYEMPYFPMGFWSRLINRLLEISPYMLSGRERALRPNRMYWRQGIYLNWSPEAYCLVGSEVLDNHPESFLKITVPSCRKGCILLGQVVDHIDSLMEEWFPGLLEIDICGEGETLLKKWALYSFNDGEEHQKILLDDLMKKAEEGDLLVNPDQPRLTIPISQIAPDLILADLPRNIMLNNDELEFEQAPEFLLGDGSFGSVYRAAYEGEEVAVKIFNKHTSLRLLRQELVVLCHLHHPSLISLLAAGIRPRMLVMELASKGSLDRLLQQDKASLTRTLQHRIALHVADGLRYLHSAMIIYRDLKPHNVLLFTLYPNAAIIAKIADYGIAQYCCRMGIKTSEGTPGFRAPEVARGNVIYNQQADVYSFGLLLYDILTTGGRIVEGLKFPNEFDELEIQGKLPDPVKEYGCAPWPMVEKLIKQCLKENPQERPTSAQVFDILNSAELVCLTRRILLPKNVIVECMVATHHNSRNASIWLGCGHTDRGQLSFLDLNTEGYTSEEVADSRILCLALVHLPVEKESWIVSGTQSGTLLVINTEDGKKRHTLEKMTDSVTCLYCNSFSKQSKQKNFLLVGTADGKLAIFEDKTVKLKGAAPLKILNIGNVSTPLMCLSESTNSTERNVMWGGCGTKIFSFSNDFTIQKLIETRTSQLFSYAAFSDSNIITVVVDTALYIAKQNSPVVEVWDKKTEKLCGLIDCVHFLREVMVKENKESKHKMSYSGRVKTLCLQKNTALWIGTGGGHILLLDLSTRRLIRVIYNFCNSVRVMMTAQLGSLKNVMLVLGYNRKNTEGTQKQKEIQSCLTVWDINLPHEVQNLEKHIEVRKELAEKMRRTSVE
protocol.details: radiometric filter-binding kinase assay, Kinase HotSpot
setup.conditions: compound 0.5 µM; ATP 10 µM
Kindly provide the numeric value in % only, without the unit symbol.

# example entries with known answers
1) Cc1ccc(NC2=CC(=O)c3sc(C)nc3C2=O)cc1	102
2) CCCC(=O)Oc1ccc2[nH]c(C(=O)c3cc4ccccc4[nH]3)cc2c1	101
3) Nc1ncnc2c1c(-c1ccc(Oc3ccccc3)cc1)cn2C1CCCC1	86.2
4) COc1cc2ncnc(Nc3cccc(Cl)c3)c2cc1OC	60.9
5) CC(C)N(CCC(=O)c1ccc2ccccc2c1)Cc1ccccc1	98.2

[in] Reported residual activity, compound N#C/C(=C(/N)Sc1ccc(N)cc1)c1ccccc1C(F)(F)F : ____
[out] 100

[in] Then CNc1cc2c(Nc3cccc(Br)c3)ncnc2cn1 ?
[out] 67

[in] Try the compound O=C(Nc1cccc(Nc2nccc(Nc3cccc(C(F)(F)F)c3)n2)c1)C1CC1
[out] 93.7

* * *

Reported values of residual activity for individual entries
target.desc: DMPK (human)
protocol.details: radiometric filter-binding kinase assay, Kinase HotSpot
setup.conditions: compound 0.5 µM; ATP 10 µM
Numbers only here, please. The scale is %.

Examples from the recorded data:
1. CCN(CC)CCNC(=O)c1c(C)[nH]c(/C=C2\C(=O)Nc3ccc(Cl)cc32)c1C	102
2. Nc1cccc(-c2cc3c(Oc4cccc(O)c4)ncnc3[nH]2)c1	95.2
3. Cc1ccc(S(=O)(=O)/C=C/C#N)cc1	89

[in] Give recorded residual activity with DMPK (human) for the following compound: O=C1Nc2ccc(Cl)cc2/C1=C/c1cc(Cl)c(O)c(Cl)c1
[out] 112

[in] Also, Nc1ncnc2c1c(-c1ccc(Oc3ccccc3)cc1)cn2C1CCCC1 please.
[out] 136

[in] Here is the next compound: CC#CC(=O)Nc1cc2c(Nc3ccc(F)c(Cl)c3)ncnc2cn1
[out] 104

[in] Repeat for the following compound: O=c1cc(N2CCOCC2)oc2c1ccc1ccccc12
[out] 105

[in] Same thing, different compound: O=C(Nc1cccc(Nc2nccc(Nc3cccc(C(F)(F)F)c3)n2)c1)C1CC1
[out] 101

* * *

target.desc: UniProt:Q9HC98
Sequence (Q9HC98 whole entry, looked up): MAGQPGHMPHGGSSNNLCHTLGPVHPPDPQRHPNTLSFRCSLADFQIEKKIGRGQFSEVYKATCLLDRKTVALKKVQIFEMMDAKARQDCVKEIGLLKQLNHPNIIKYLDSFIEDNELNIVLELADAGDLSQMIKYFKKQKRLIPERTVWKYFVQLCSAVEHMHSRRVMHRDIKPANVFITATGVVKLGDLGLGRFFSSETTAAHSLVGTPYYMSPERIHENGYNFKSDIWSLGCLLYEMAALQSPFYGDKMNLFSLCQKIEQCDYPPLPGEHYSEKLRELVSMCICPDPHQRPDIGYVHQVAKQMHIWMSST
protocol.details: radiometric filter-binding kinase assay, Kinase HotSpot
setup.conditions: compound 0.5 µM; ATP 10 µM
recorded.metric: residual activity (%)
Give your result in % as a bare value.

Here are 8 compounds together with their reported answers.
1) CCN(CC)CCNC(=O)c1c(C)[nH]c(/C=C2\C(=O)Nc3ccc(F)cc32)c1C	89
2) CC(=O)c1ccc(N2CCOCC2)cc1O	96.5
3) Nc1cccc(-c2cc3c(Oc4cccc(O)c4)ncnc3[nH]2)c1	90.2
4) CO[C@H]1CC2CC[C@@H](C)[C@@](O)(O2)C(=O)C(=O)N2CCCC[C@H]2C(=O)OC([C@H](C)C[C@@H]2CC[C@@H](O)[C@H](OC)C2)CC(=O)[C@H](C)/C=C(\C)[C@@H](O)[C@@H](OC)C(=O)[C@H](C)C[C@H](C)/C=C/C=C/C=C/1C (stereo partly specified)	97.7
5) O=C1NC(=O)C(c2cn(CCCn3ccnc3)c3ccccc23)=C1Nc1ccccc1	93.6
6) c1ccc(-c2n[nH]c3c2oc2ccccc23)cc1	99
7) Cc1ccc(S(=O)(=O)/C=C/C#N)cc1	108
8) COc1cc2ncnc(Nc3cccc(Cl)c3)c2cc1OC	105

[in] Need residual activity, item CC(C)N(CCC(=O)c1ccc2ccccc2c1)Cc1ccccc1
[out] 109

[in] Same for Cc1ccc(Nc2nccc(N(C)c3ccc4c(C)n(C)nc4c3)n2)cc1S(N)(=O)=O
[out] 96.1

[in] Also, Oc1cccc(-c2nc(N3CCOCC3)c3oc4ncccc4c3n2)c1 please.
[out] 106

[in] Item: CC#CC(=O)Nc1cc2c(Nc3ccc(F)c(Cl)c3)ncnc2cn1
[out] 97.5

[in] Record: COc1ccc2c(c[n+](C)c3c4cc5c(cc4ccc23)OCO5)c1OC
[out] 104

[in] One more compound: O=C1Nc2ccc(Cl)cc2/C1=C/c1cc(Cl)c(O)c(Cl)c1
[out] 104

[in] Input CCN(CC)C(=O)c1ccc(Nc2nc(OCC3CCCCC3)c3nc[nH]c3n2)cc1
[out] 101

[in] Also check CC[n+]1c(/C=C/N(C)c2ccccc2)n(-c2ccccc2)c2ccc(-c3nc4ccccc4s3)cc21
[out] 96.1

[in] Another compound to check: CCCC(=O)Oc1ccc2[nH]c(C(=O)c3cc4ccccc4[nH]3)cc2c1
[out] 101

[in] Cc1ccc(NC2=CC(=O)c3sc(C)nc3C2=O)cc1 ?
[out] 106

* * *

target.desc: KIT (human) (UniProt P10721)
Sequence (P10721 whole entry, looked up): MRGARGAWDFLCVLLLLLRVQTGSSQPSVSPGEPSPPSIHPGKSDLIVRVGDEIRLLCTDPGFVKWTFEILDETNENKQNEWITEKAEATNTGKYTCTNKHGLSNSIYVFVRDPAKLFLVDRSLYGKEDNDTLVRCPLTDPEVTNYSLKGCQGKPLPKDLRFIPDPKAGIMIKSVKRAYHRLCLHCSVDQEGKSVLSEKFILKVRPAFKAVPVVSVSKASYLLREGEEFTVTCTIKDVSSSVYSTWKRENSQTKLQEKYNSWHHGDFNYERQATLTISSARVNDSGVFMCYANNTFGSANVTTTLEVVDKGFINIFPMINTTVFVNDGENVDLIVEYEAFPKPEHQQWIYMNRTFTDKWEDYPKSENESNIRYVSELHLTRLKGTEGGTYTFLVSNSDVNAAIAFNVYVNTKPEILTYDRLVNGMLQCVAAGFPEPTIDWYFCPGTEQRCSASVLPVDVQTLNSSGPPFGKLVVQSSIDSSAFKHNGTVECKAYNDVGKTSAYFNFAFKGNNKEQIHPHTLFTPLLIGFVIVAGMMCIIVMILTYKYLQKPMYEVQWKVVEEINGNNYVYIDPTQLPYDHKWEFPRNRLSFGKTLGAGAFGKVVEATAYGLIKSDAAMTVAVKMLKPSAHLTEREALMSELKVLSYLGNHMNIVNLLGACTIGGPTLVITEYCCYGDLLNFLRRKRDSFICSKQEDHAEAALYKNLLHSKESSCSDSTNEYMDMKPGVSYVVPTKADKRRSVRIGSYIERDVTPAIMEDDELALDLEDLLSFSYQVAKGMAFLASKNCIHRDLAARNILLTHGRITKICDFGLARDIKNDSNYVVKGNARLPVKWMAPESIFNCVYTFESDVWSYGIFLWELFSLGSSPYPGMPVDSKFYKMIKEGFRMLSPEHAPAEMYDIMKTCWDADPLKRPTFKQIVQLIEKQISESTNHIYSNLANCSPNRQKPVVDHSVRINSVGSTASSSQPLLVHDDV
protocol.details: radiometric filter-binding kinase assay, Kinase HotSpot
setup.conditions: compound 0.5 µM; ATP 10 µM
recorded.metric: residual activity (%)
Your answer is read as %, so omit the unit and give the number.

Sample answers from the record:
1. Cc1ccc(S(=O)(=O)/C=C/C#N)cc1	102
2. COc1cc2ncnc(Nc3cccc(Cl)c3)c2cc1OC	94
3. CC[n+]1c(/C=C/N(C)c2ccccc2)n(-c2ccccc2)c2ccc(-c3nc4ccccc4s3)cc21	104
4. Nc1cccc(-c2cc3c(Oc4cccc(O)c4)ncnc3[nH]2)c1	35.1

[in] Query (molecule): O=C1NC(=O)C(c2cn(CCCn3ccnc3)c3ccccc23)=C1Nc1ccccc1 ; field requested: residual activity
[out] 90.2

[in] Param item: O=S(=O)(c1cccc2cnccc12)N1CCCNCC1
[out] 96.7

[in] Request: CCN(CC)C(=O)c1ccc(Nc2nc(OCC3CCCCC3)c3nc[nH]c3n2)cc1
[out] 40.7

[in] Consider next the molecule O=C1NC(=O)/C(=C/c2ccc3c(c2)OC(F)(F)O3)S1 in the same way.
[out] 93.4

* * *

target.desc: UniProt P06239
Sequence (P06239 whole entry, looked up): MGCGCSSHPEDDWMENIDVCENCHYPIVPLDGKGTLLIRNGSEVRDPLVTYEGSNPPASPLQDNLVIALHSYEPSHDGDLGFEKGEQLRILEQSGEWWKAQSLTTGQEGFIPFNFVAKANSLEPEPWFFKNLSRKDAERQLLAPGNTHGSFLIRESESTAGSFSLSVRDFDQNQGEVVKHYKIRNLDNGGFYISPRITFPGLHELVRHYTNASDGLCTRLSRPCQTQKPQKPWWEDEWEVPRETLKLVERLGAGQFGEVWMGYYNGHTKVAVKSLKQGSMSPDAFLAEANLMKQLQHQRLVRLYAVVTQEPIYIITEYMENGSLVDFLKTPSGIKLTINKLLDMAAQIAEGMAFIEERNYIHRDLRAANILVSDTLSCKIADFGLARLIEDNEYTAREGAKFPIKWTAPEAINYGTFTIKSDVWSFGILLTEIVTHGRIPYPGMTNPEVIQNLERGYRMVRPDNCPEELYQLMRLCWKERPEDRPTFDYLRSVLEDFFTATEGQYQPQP
protocol.details: radiometric filter-binding kinase assay, Kinase HotSpot
setup.conditions: compound 0.5 µM; ATP 10 µM
# binarize residual activity: threshold 90% inclusive, high side fulfilled, low side not fulfilled

1) Cc1[nH]c(/C=C2\C(=O)Nc3ccc(S(=O)(=O)N(C)c4cccc(Cl)c4)cc32)c(C)c1C(=O)N1CCN(C)CC1	not fulfilled
2) Nc1cccc(-c2cc3c(Oc4cccc(O)c4)ncnc3[nH]2)c1	not fulfilled
3) CCCC(=O)Oc1ccc2[nH]c(C(=O)c3cc4ccccc4[nH]3)cc2c1	fulfilled
4) CCC(=O)Nc1ccc2ncnc(Nc3cccc(Br)c3)c2c1	fulfilled

[in] hey, is residual activity for this one >= 90%? Oc1cccc(-c2nc(N3CCOCC3)c3oc4ncccc4c3n2)c1
[out] fulfilled

[in] Now the same for COc1ccc(COc2ccc(Cc3cnc(N)nc3N)cc2OC)cc1
[out] fulfilled

* * *

target.desc: SYK (human)
protocol.details: radiometric filter-binding kinase assay, Kinase HotSpot
setup.conditions: compound 0.5 µM; ATP 10 µM
recorded.metric: residual activity (%)
State just the number; it will be interpreted in %.

1) O=C(Nc1cccc(Nc2nccc(Nc3cccc(C(F)(F)F)c3)n2)c1)C1CC1	101
2) CCOC(=O)c1c(C)[nH]c(/C=C2\C(=O)Nc3ccccc32)c1C	89.3
3) CNc1cc2c(Nc3cccc(Br)c3)ncnc2cn1	95.3
4) CCC(=O)Nc1ccc2ncnc(Nc3cccc(Br)c3)c2c1	94.3
5) Cc1ccc(NC2=CC(=O)c3sc(C)nc3C2=O)cc1	97.9

Now, please, on to the next molecule.
[in] Any idea what its residual activity is? The molecule is Nc1cccc(-c2cc3c(Oc4cccc(O)c4)ncnc3[nH]2)c1
[out] 36.1

* * *

// reported residual activity per item
target.desc: SRPK1 (human) (UniProt Q96SB4)
Sequence (Q96SB4 whole entry, looked up): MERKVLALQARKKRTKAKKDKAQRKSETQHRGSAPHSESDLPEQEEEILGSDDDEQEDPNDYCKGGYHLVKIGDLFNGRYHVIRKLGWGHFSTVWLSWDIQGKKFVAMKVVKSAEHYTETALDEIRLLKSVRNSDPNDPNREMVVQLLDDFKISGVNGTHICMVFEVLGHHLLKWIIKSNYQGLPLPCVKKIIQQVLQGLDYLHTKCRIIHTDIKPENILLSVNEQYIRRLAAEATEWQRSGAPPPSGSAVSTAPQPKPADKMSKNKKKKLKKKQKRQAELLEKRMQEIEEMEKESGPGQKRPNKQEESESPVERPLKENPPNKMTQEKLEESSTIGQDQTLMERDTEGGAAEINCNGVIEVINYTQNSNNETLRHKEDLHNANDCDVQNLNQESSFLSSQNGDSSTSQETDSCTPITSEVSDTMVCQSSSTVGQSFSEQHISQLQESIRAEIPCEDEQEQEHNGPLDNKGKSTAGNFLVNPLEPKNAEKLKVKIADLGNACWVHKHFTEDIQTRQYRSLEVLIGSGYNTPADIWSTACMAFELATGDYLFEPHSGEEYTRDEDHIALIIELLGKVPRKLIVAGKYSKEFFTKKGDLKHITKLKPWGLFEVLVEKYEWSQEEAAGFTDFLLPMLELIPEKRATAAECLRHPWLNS
protocol.details: radiometric filter-binding kinase assay, Kinase HotSpot
setup.conditions: compound 0.5 µM; ATP 10 µM
Express your answer in %, writing the number without its unit.

1) Nc1ncnc2c1c(-c1ccc(Oc3ccccc3)cc1)cn2C1CCCC1	105

[in] Query: residual activity; subject: Cc1[nH]c(/C=C2\C(=O)Nc3ccc(S(=O)(=O)N(C)c4cccc(Cl)c4)cc32)c(C)c1C(=O)N1CCN(C)CC1
[out] 77.3

[in] Now give it for CCC(=O)Nc1ccc2ncnc(Nc3cccc(Br)c3)c2c1 too.
[out] 97

[in] Repeat for the following compound: Cc1ccc(S(=O)(=O)/C=C/C#N)cc1
[out] 99.7

* * *

Reported residual activity by item:
target.desc: GSK3B (human)
protocol.details: radiometric filter-binding kinase assay, Kinase HotSpot
setup.conditions: compound 0.5 µM; ATP 10 µM
Write the value in % as a bare number.

1. O=S(=O)(c1cccc2cnccc12)N1CCCNCC1	102
2. N#CC(C#N)=C(N)/C(C#N)=C/c1ccc(O)cc1	89.5
3. CNc1cc2c(Nc3cccc(Br)c3)ncnc2cn1	89.6
4. c1ccc(-c2n[nH]c3c2oc2ccccc23)cc1	105
5. COc1ccc2c(c[n+](C)c3c4cc5c(cc4ccc23)OCO5)c1OC	88.3

[in] // returns reported residual activity for input Cc1ccc(S(=O)(=O)/C=C/C#N)cc1
[out] 109

[in] Nc1cccc(-c2cc3c(Oc4cccc(O)c4)ncnc3[nH]2)c1 , same question.
[out] 48.1

[in] # iterate: O=C(Nc1cccc(Nc2nccc(Nc3cccc(C(F)(F)F)c3)n2)c1)C1CC1
[out] 101
